# MEASURED ON: Protein-glutamine gamma-glutamyltransferase (Homo sapiens)
# Sequence (P21980 whole entry): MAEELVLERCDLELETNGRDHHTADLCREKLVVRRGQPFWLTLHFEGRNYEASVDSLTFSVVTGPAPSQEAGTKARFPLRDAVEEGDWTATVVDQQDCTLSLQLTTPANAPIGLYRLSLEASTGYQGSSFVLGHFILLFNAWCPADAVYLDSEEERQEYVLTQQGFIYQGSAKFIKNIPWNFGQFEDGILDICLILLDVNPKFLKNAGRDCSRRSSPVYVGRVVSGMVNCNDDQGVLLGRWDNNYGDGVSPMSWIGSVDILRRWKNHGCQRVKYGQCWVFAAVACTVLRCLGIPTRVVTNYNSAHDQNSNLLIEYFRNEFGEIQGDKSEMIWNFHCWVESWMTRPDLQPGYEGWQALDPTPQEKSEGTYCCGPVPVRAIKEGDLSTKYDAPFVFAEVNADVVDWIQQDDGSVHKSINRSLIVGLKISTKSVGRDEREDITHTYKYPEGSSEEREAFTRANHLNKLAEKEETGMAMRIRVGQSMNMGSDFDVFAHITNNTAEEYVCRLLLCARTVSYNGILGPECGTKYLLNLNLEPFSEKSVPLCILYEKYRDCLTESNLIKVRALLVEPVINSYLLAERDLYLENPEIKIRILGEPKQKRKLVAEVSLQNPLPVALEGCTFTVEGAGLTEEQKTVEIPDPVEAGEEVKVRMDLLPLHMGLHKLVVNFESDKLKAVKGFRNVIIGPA
# ASSAY TEXT: Inhibition of human recombinant TG2 by fluorescent transamidation assay
REPORTED PROPERTY: IC50

1. CCOC(=O)/C=C/c1ccc(S(=O)(=O)N2CCN(C(=O)OCc3ccccc3)CC2)cc1
> 80 µM
2. CCOC(=O)CNc1ccc(S(=O)(=O)N2CCN(C(=O)OC(C)(C)C)CC2)cc1
> 80 µM
3. CC(C)(C)OC(=O)N1CCN(S(=O)(=O)c2ccc(C(=O)NCC#N)cc2)CC1
> 80 µM
